# Target System: HTH-type quorum-sensing regulator RhlR (Pseudomonas aeruginosa (strain ATCC 15692 / PAO1 / 1C / PRS 101 / LMG12228)) (UniProt P54292)
# Sequence (whole entry): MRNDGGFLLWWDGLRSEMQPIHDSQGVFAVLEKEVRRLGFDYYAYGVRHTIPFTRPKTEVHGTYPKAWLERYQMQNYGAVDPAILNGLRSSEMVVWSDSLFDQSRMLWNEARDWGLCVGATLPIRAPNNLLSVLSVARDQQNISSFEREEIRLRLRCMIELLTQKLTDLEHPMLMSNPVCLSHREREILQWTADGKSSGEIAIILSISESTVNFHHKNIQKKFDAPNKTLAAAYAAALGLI
# Test Protocol: Agonist activity at Pseudomonas aeruginosa RhlR expressed in Escherichia coli DH5alpha assessed as relative protein activity at 1000 uM incubated for 1.5 hrs by luminescence reporter gene assay relative to control
Observed Property: Activity (%)

These recorded examples may help you get a feel for the data.
{"Compound": "CCCC(O)CC(=O)/C=C/c1ccc(O)c(O)c1 (configuration not stated)", "Output Unit": "%", "Observed Measurement": 5}
{"Compound": "CCCCC(=O)C#Cc1ccc(F)c(F)c1", "Output Unit": "%", "Observed Measurement": 6}
{"Compound": "CCCC(O)CC(=O)/C=C/c1ccc(F)c(F)c1 (configuration not stated)", "Output Unit": "%", "Observed Measurement": 5}
{"Compound": "CCCC(O)CC(=O)/C=C/c1cccc(OC)c1 (configuration not stated)", "Output Unit": "%", "Observed Measurement": 4}
{"Compound": "CCCC(O)CC(=O)/C=C/c1ccc(O)c(OC)c1 (configuration not stated)", "Output Unit": "%", "Observed Measurement": 5}

1. CCCC(O)C#Cc1ccc(F)c(F)c1 (racemic)
2. CCCC(=O)NC1CCCC1
Please indicate which item has the smaller measured Activity: 1 versus 2 Indicate your choice by writing its label.
1
(1: 5%, 2: 37%)

###

# Target System: HTH-type quorum-sensing regulator RhlR (Pseudomonas aeruginosa (strain ATCC 15692 / PAO1 / 1C / PRS 101 / LMG12228)) (UniProt P54292)
# Sequence (whole entry): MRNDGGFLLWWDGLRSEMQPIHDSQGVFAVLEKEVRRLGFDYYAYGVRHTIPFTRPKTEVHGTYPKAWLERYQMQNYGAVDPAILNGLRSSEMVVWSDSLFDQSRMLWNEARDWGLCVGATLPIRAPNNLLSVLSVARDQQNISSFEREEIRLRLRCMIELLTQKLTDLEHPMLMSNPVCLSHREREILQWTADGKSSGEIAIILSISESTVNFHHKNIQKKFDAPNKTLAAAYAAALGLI
# Test Protocol: Antagonist activity at RhlR in Pseudomonas aeruginosa assessed as rhamnolipid production at 10 uM incubated for 24 hrs by Orcinol staining based assay relative to control
# Design: scale not given: the % may be the effect or the level left
Observed Property: Activity (%)

{"Molecule": "CCCC(O)CC(=O)/C=C/c1cccc(OC)c1 (stereo unspecified)", "Observed Property": "Activity", "Output Unit": "%", "Observed Measurement": 91}
{"Molecule": "CCCC(=O)NC1CCCC1", "Observed Property": "Activity", "Output Unit": "%", "Observed Measurement": 58}
{"Molecule": "CCC[C@H](O)C#Cc1ccc(F)c(F)c1", "Observed Property": "Activity", "Output Unit": "%", "Observed Measurement": 59}
{"Molecule": "CCCC(O)CC(=O)/C=C/c1ccc(O)c(O)c1 (stereo unspecified)", "Observed Property": "Activity", "Output Unit": "%", "Observed Measurement": 56}
{"Molecule": "CCCCC(=O)C#Cc1ccc(F)c(F)c1", "Observed Property": "Activity", "Output Unit": "%", "Observed Measurement": 59}
{"Molecule": "CCCCCC(=O)C#Cc1ccc(F)c(F)c1", "Observed Property": "Activity", "Output Unit": "%", "Observed Measurement": 60}
{"Molecule": "CCCC(O)CC(=O)/C=C/c1ccc(F)c(F)c1 (stereo unspecified)", "Observed Property": "Activity", "Output Unit": "%", "Observed Measurement": 63}
{"Molecule": "CCCC(O)C#Cc1ccc(F)c(F)c1 (racemic)", "Observed Property": "Activity", "Output Unit": "%", "Observed Measurement": 73}
{"Molecule": "CCCCCC(=O)/C=C/c1ccc(F)c(F)c1", "Observed Property": "Activity", "Output Unit": "%", "Observed Measurement": 64}
{"Molecule": "CCC[C@@H](O)C#Cc1ccc(F)c(F)c1", "Observed Property": "Activity", "Output Unit": "%", "Observed Measurement": 60}
{"Molecule": "CCCC(O)CC(=O)/C=C/c1ccc(O)c(OC)c1 (stereo unspecified)", "Observed Property": "Activity", "Output Unit": "%", "Observed Measurement": 73}
